tested on: SN12C; assay: Cytotoxicity against human SN12C cells assessed as decrease in cell viability after 96 hrs; assay type: functional, cell-based
readout_kind: IC50 (mg/L)
Numeric only. Scale: mg/L

Field: example entries. Status: answers known.
compound	study_system	IC50 / mg/L
O=CC1=Cc2cc3cc(/C=C(\c4ccccc4)c4cccc[n+]4C4CCC([n+]5ccccc5Cc5ccccc5)CC4)c(cc4nc(cc5ccc(cc1n2)[nH]5)C=C4)[nH]3.[Br-].[Br-] (centres undefined)	SN12C	20.3
O=S(=O)([O-])c1ccccc1/C=C(\c1ccccc1)c1cccc[n+]1C1CCC([n+]2ccccc2/C(=C/c2ccccc2S(=O)(=O)[O-])c2ccccc2)CC1.[Br-].[Br-].[Na+].[Na+] (centres undefined)	SN12C	26.3
C1=Cc2cc3cc(/C=C(\c4ccccc4)c4cccc[n+]4C4CCC([n+]5ccccc5Cc5ccccc5)CC4)c(cc4nc(cc5ccc(cc1n2)[nH]5)C=C4)[nH]3.[Br-].[Br-] (centres undefined)	SN12C	38.9

Lab note: next compound to report on.
So what does the record say about IC50 for O=S(=O)([O-])c1ccccc1/C=C(\c1ccccc1)c1cccc[n+]1C1CCC([n+]2ccccc2Cc2ccccc2)CC1.[Br-].[Br-].[Na+] (centres undefined) ?
25

###

IC50 for assorted molecules
tested on: HeLa; test: Cytotoxicity against human HeLa cells assessed as decrease in cell viability after 96 hrs; type: functional, cell-based
Numeric only. Scale: µg/mL

Field: example entries. Status: answers known.
molecule	study_system	IC50, µg/mL
C(=C(/c1ccccc1)c1cccc[n+]1C1CCC([n+]2ccccc2Cc2ccccc2)CC1)/c1cc2c3c(c1)CCCN3CCC2.[Br-].[Br-] (stereo not drawn)	HeLa	101
C1=Cc2cc3cc(/C=C(\c4ccccc4)c4cccc[n+]4C4CCC([n+]5ccccc5/C(=C/c5cc6cc7nc(cc8ccc(cc9nc(cc5[nH]6)C=C9)[nH]8)C=C7)c5ccccc5)CC4)c(cc4nc(cc5ccc(cc1n2)[nH]5)C=C4)[nH]3.[Br-].[Br-] (stereo not drawn)	HeLa	35.3

Lab note: next molecule to report on.
Form field: IC50 recorded for O=CC1=Cc2cc3cc(/C=C(\c4ccccc4)c4cccc[n+]4C4CCC([n+]5ccccc5/C(=C/c5cc6cc7nc(cc8ccc(cc9nc(cc5[nH]6)C=C9)[nH]8)C(C=O)=C7)c5ccccc5)CC4)c(cc4nc(cc5ccc(cc1n2)[nH]5)C=C4)[nH]3.[Br-].[Br-] (stereo not drawn) with HeLa (enter value)
21

###

system: MCF7; assay: Cytotoxicity against human MCF7 cells assessed as decrease in cell viability after 96 hrs; type: functional, cell-based; settings: MCF7, 96 h
readout_kind: IC50 (mg/L)
Numeric only. Scale: mg/L

Field: example entries. Status: answers known.
compound	reading
O=S(=O)([O-])c1ccccc1/C=C(\c1ccccc1)c1cccc[n+]1C1CCC([n+]2ccccc2Cc2ccccc2)CC1.[Br-].[Br-].[Na+] (stereo not given)	29
O=CC1=Cc2cc3cc(/C=C(\c4ccccc4)c4cccc[n+]4C4CCC([n+]5ccccc5/C(=C/c5cc6cc7nc(cc8ccc(cc9nc(cc5[nH]6)C=C9)[nH]8)C(C=O)=C7)c5ccccc5)CC4)c(cc4nc(cc5ccc(cc1n2)[nH]5)C=C4)[nH]3.[Br-].[Br-] (stereo not given)	16
C(=C(/c1ccccc1)c1cccc[n+]1C1CCC([n+]2ccccc2/C(=C/c2cc3c4c(c2)CCCN4CCC3)c2ccccc2)CC1)/c1cc2c3c(c1)CCCN3CCC2.[Br-].[Br-] (stereo not given)	35.6
C1=Cc2cc3cc(/C=C(\c4ccccc4)c4cccc[n+]4C4CCC([n+]5ccccc5/C(=C/c5cc6cc7nc(cc8ccc(cc9nc(cc5[nH]6)C=C9)[nH]8)C=C7)c5ccccc5)CC4)c(cc4nc(cc5ccc(cc1n2)[nH]5)C=C4)[nH]3.[Br-].[Br-] (stereo not given)	45.6

Lab note: next compound to report on.
So what does the record say about IC50 for O=CC1=Cc2cc3cc(/C=C(\c4ccccc4)c4cccc[n+]4C4CCC([n+]5ccccc5Cc5ccccc5)CC4)c(cc4nc(cc5ccc(cc1n2)[nH]5)C=C4)[nH]3.[Br-].[Br-] (stereo not given) ?
19.1

###

system: HeLa; assay: Cytotoxicity against human HeLa cells assessed as decrease in cell viability after 96 hrs; assay type: functional, cell-based
readout_kind: IC50 (µg/mL)
Numeric only. Scale: µg/mL

compound	readout_kind	units_of_measure	reading
O=CC1=Cc2cc3cc(/C=C(\c4ccccc4)c4cccc[n+]4C4CCC([n+]5ccccc5Cc5ccccc5)CC4)c(cc4nc(cc5ccc(cc1n2)[nH]5)C=C4)[nH]3.[Br-].[Br-] (stereo unspecified)	IC50	µg/mL	23.7
O=S(=O)([O-])c1ccccc1/C=C(\c1ccccc1)c1cccc[n+]1C1CCC([n+]2ccccc2Cc2ccccc2)CC1.[Br-].[Br-].[Na+] (stereo unspecified)	IC50	µg/mL	39.6
O=c1[nH]cc(F)c(=O)[nH]1	IC50	µg/mL	3.2
C1=Cc2cc3cc(/C=C(\c4ccccc4)c4cccc[n+]4C4CCC([n+]5ccccc5Cc5ccccc5)CC4)c(cc4nc(cc5ccc(cc1n2)[nH]5)C=C4)[nH]3.[Br-].[Br-] (stereo unspecified)	IC50	µg/mL	40.3
O=S(=O)([O-])c1ccccc1/C=C(\c1ccccc1)c1cccc[n+]1C1CCC([n+]2ccccc2/C(=C/c2ccccc2S(=O)(=O)[O-])c2ccccc2)CC1.[Br-].[Br-].[Na+].[Na+] (stereo unspecified)	IC50	µg/mL	32.3

Lab note: next compound to report on.
So what does the record say about IC50 for C(=C(/c1ccccc1)c1cccc[n+]1C1CCC([n+]2ccccc2/C(=C/c2cc3c4c(c2)CCCN4CCC3)c2ccccc2)CC1)/c1cc2c3c(c1)CCCN3CCC2.[Br-].[Br-] (stereo unspecified) ?
49.8

###

tested on: MCF7; assay: Cytotoxicity against human MCF7 cells assessed as decrease in cell viability after 96 hrs; type: functional, cell-based; conditions: MCF7, 96 h
readout_kind: IC50 (µg/mL)
Numeric only. Scale: µg/mL

Field: example entries. Status: answers known.
compound	readout_kind	reading
C1=Cc2cc3cc(/C=C(\c4ccccc4)c4cccc[n+]4C4CCC([n+]5ccccc5Cc5ccccc5)CC4)c(cc4nc(cc5ccc(cc1n2)[nH]5)C=C4)[nH]3.[Br-].[Br-] (stereo not drawn)	IC50	45.9
O=S(=O)([O-])c1ccccc1/C=C(\c1ccccc1)c1cccc[n+]1C1CCC([n+]2ccccc2/C(=C/c2ccccc2S(=O)(=O)[O-])c2ccccc2)CC1.[Br-].[Br-].[Na+].[Na+] (stereo not drawn)	IC50	22.5

Lab note: next compound to report on.
Form field: IC50 recorded for C(=C(/c1ccccc1)c1cccc[n+]1C1CCC([n+]2ccccc2Cc2ccccc2)CC1)/c1cc2c3c(c1)CCCN3CCC2.[Br-].[Br-] (stereo not drawn) with MCF7 (enter value)
96.9

###

system: SN12C; assay: Cytotoxicity against human SN12C cells assessed as decrease in cell viability after 96 hrs; type: functional, cell-based
readout_kind: log10 of IC50 (log10 of the value in µg/mL)
// units: µg/mL (pre-log); metric: IC50; scale: log10

compound	log10 of IC50
C1=Cc2cc3cc(/C=C(\c4ccccc4)c4cccc[n+]4C4CCC([n+]5ccccc5/C(=C/c5cc6cc7nc(cc8ccc(cc9nc(cc5[nH]6)C=C9)[nH]8)C=C7)c5ccccc5)CC4)c(cc4nc(cc5ccc(cc1n2)[nH]5)C=C4)[nH]3.[Br-].[Br-] (stereo not given)	1.49

Lab note: next compound to report on.
So what does the record say about log10 of IC50 for C(=C(/c1ccccc1)c1cccc[n+]1C1CCC([n+]2ccccc2/C(=C/c2cc3c4c(c2)CCCN4CCC3)c2ccccc2)CC1)/c1cc2c3c(c1)CCCN3CCC2.[Br-].[Br-] (stereo not given) ?
1.72

###

IC50 for assorted compounds
system: SN12C; assay: Cytotoxicity against human SN12C cells assessed as decrease in cell viability after 96 hrs; type: functional, cell-based
Hey, just the number and the unit after it is fine.

compound	IC50
O=CC1=Cc2cc3cc(/C=C(\c4ccccc4)c4cccc[n+]4C4CCC([n+]5ccccc5/C(=C/c5cc6cc7nc(cc8ccc(cc9nc(cc5[nH]6)C=C9)[nH]8)C(C=O)=C7)c5ccccc5)CC4)c(cc4nc(cc5ccc(cc1n2)[nH]5)C=C4)[nH]3.[Br-].[Br-] (stereo not drawn)	20 µg/mL
O=c1[nH]cc(F)c(=O)[nH]1	6.5 µg/mL

Lab note: next compound to report on.
So what does the record say about IC50 for C(=C(/c1ccccc1)c1cccc[n+]1C1CCC([n+]2ccccc2Cc2ccccc2)CC1)/c1cc2c3c(c1)CCCN3CCC2.[Br-].[Br-] (stereo not drawn) ?
86.5 µg/mL
